assay: NCI Yeast Anticancer Drug Screen. Data for the rad50 strain (AID 155);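 also: 0% = growth of vehicle-only cultures of the same strain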; conditions: S. cerevisiae rad50 strain growth inhibition; at 33.0 µM; hits give high values
Compounds without any hit were thinned out: in the full panel of roughly 79,000, 15% have a hit.
So I've got a bunch of compounds here, and I need their growth inhibition values.
Number only, in %; omit the unit.

Q. What does the record list as growth inhibition for `CCCCC1=NNC(=O)C1` ?
A. -11

Q. So what does the record say about growth inhibition for `CCOC(=O)[C@]1(Br)CC[C@@]1(Br)C(=O)OCC` ?
A. 94

Q. What does the record list as growth inhibition for CC1OC(OC2CCCc3c(O)c4c(c(O)c32)C(=O)c2ccccc2C4=O)CC(N)C1O (stereo not given) ?
A. 99

Q. Looking for the measured growth inhibition of `O=C(O)c1[nH]c(=O)c2ccccc2c1Nc1ccccc1` , can you help?
A. 4

Q. Query (compound): CC1=CCCC2C1(C)CCC(C)C2(C)Cc1cc(O)ccc1O (stereo not given) ; field requested: growth inhibition
A. 98

Q. Record request: growth inhibition value, item `CN=C(N)N/N=C(\C)c1ccc2oc3ccc(/C(C)=N/NC(N)=NC)cc3c2c1`
A. 98

Q. Can you share its growth inhibition? I mean this compound: CN(Cc1cnc2nc(N)nc(N)c2n1)c1ccc(C(=O)NC(CCC(=O)O)C(=O)O)c2ccccc12 (stereo not given)
A. 89

Q. Tell me the measured growth inhibition of `N#CC(=S)Nc1cccc(Cl)c1` , please.
A. 18

Q. Dear colleague, I am looking for the recorded growth inhibition of the following compound: `CNc1nc(C)nc2c1cnn2-c1ccc([N+](=O)[O-])cc1`
A. 68

Q. growth inhibition for `CCCCCC(=O)c1ccc(O)cc1O` ?
A. 91

Q. Tell me the measured growth inhibition of `O=C1c2c(O)cccc2-c2nn(CCNCCO)c3ccc(NCCNCCO)c1c23` , please.
A. 85

Q. # query: growth inhibition of entry `CN[C@@H]1C[C@H]2O[C@@](C)([C@@H]1OC)n1c3ccccc3c3c4c(c5c6ccccc6n2c5c31)C(=O)N[C@@H]4O`
A. -33

Q. Please look up its growth inhibition: `O=C(/C=N/O)Nc1cc(Cl)c(Cl)cc1Cl`
A. 10

Q. What value of growth inhibition has been recorded for this entry: `COc1cc(N(C)C)ccc1/C=C\c1ccnc2ccccc12`
A. -1

Q. So what does the record say about growth inhibition for `CN(C)c1ccc(N=Nc2ccccn2)cc1` ?
A. 94

Q. Requested field: growth inhibition. Item: `CC[C@@]1(OC(=O)CCC(=O)O)C(=O)OCc2c1cc1n(c2=O)Cc2cc3ccccc3nc2-1`
A. 94

Q. Query: growth inhibition; subject: `O=C1C=CC(=O)N1c1ccc(I)cc1`
A. 98

Q. Which value of growth inhibition has been reported for `NNC(=S)Nc1cccc2ccccc12` in the records?
A. -6

Q. So what's the measured growth inhibition for this one? O=C1NC(c2c(Cl)cccc2Cl)Nc2ccccc21 (stereo not given)
A. 72

Q. Query: growth inhibition; subject: `NC(N)=NCCCS(=O)(=O)Nc1ccc(Nc2c3ccccc3nc3cc([N+](=O)[O-])ccc23)cc1`
A. 83

----------
test: NCI Yeast Anticancer Drug Screen. Data for the mlh1 rad18 strain (AID 175); details: S. cerevisiae mlh1 rad18 strain growth inhibition; at 50.0 µM; hits give high values
The panel holds about 79,000 compounds, 15% with a hit somewhere; the sample as a whole holds those more often.
Test Readout: growth inhibition (%)
Use % as the unit, but write only the number.

Q. Tell me the measured growth inhibition of `COC(=O)c1cccc(C)c1C(=O)c1c(C)cc(C)cc1C` , please.
A. 15.7

Q. I'd like to know its growth inhibition. The compound in question is `O=C1c2ccccc2CCC1(Br)Br`
A. 99.3

Q. What value of growth inhibition has been reported for the following compound? `O=S(=O)(c1cc(Cl)ccc1O)c1cc(Cl)ccc1O`
A. 99.7

Q. Returns the measured growth inhibition for the input compound. Input: `C/C=C/[P+](c1ccccc1)(c1ccccc1)c1ccccc1`
A. 87.8

Q. Looking for the measured growth inhibition of CCOC(=O)C(NC(=O)CC)(N1CCN(c2cc3c(cc2F)c(=O)c(C(=O)O)cn3C2CC2)CC1)C(F)(F)F (stereo unspecified) , can you help?
A. 74.5

Q. # input compound: `CCCCCCCCCCCCCCCCNC(=O)/C(=C\c1ccc(Cl)c(Cl)c1)NC(=O)c1ccccc1` ; wanted: its growth inhibition
A. 89.2

Q. Need growth inhibition, item `c1ccc(N2N=C3N(c4ccccc4)C2N3c2ccccc2)cc1`
A. 77.5

Q. Value lookup for growth inhibition; key = `Cc1c2cc[n+](CCN3CCCCC3)cc2c(C)c2c1[nH]c1ccc(O)cc12`
A. 81.8

Q. Please report the recorded growth inhibition for `COc1cc(N)ccc1Nc1c2ccccc2nc2ccccc12` .
A. 65.7

Q. Recorded growth inhibition for CC1=CCC(C(C)(C)c2ccc(O)cc2)CC1 (stereo unspecified) , please?
A. 91.8

Q. Data request, read-out growth inhibition, for `O=C1C=CC(=Nc2ccccc2)c2ccccc21`
A. 36.5

Q. // growth inhibition lookup, key: `O=C(/C=C\c1ccc([N+](=O)[O-])o1)Nc1ccc(Cl)cc1`
A. 92.8

Q. Suppose we examine the compound `CNc1ccc(Cc2c[nH]c3ccccc23)cc1` ; what growth inhibition value has been reported?
A. 84.8

Q. Any idea what growth inhibition was measured for `Cc1ccc(CNc2ccc(Br)cc2)cc1` ?
A. 60.2

Q. # lookup: growth inhibition of O=C1OC2C(O)COC2(OCc2c[nH]c3ccccc23)C1O (stereo unspecified) (tested in a mixture with another compound)
A. 88.9

Q. Entry `c1ccc2c(c1)ccc1c3ccncc3ccc21` has what growth inhibition?
A. 97.5

Q. Give its growth inhibition value. Item: COc1cccc(C(c2cc3c(cc2O)OCO3)N2CCOCC2)c1OC (stereo unspecified)
A. 9.25

Q. Given the entry `CCCCOC(=O)CSSCC(=O)OCCCC` , report its measured growth inhibition.
A. 90.2

Q. // query growth inhibition value for entry CCCCCCCCCCCCCC(=O)OC(C)CCC1CCCO1 (stereo unspecified)
A. 20.8

Q. Which growth inhibition value is on record for `COC(=O)c1ccc2c(c1)Cc1ccccc1-2` ?
A. 45.6

Q. Return reported growth inhibition; argument: `O=c1[nH]cc(/C=N\Nc2ccccc2)c(=O)[nH]1`
A. 84.5

Q. Please look up its growth inhibition: `N#CC(=C1C=CC(=NO)C=C1)c1ccccc1`
A. 99.4

Q. Data request, read-out growth inhibition, for `c1ccc2c(c1)Cn1c-2nc2ccccc21`
A. 83.4

Q. Can you share its growth inhibition? I mean this compound: `ClCCn1c(CCl)nc2ccc(Cl)cc21`
A. 79

Q. Give the measured growth inhibition of `CN(C)Cc1cccc(CN(C)C)[c]1[Sn]([Br])([c]1ccccc1)[c]1ccccc1` .
A. 90.7

Q. I'd like to know its growth inhibition. The compound in question is CC1CCC2(C(=O)O)CCC3(C)C(=CCC4C5(C)CC(O)C(O)C(C)(CO)C5C(O)CC43C)C2C1C (stereo unspecified)
A. 58.7

Q. Name the recorded growth inhibition for `CCN1/C(=C/c2ccc3ccccc3[n+]2CC)C=Cc2ccccc21` .
A. 90.2

Q. For the compound `O=Cc1coc2ccccc2c1=O` , what growth inhibition is on record?
A. 62.4

Q. Recorded growth inhibition of `CC(C)c1[nH]nc(C(N)=O)c1N=NN(C)C` , please.
A. 58.1

Q. Look at this compound and give its reported growth inhibition. `Cc1c(-c2ccccc2)[nH]c2ccccc12`
A. 91.2

Q. Which growth inhibition reading was recorded for the compound `Cc1ccc(S(=O)(=O)N/N=C/C2(c3ccccc3)c3ccccc3-c3ccccc32)cc1` ?
A. 70.5

Q. # lookup: growth inhibition of `NNC(=S)Nc1cccc(Cl)c1`
A. 75.1

Q. What value of growth inhibition has been reported for the following compound? `O=[N+]([O-])c1cc(S(=O)(=O)Nc2ccccc2)ccc1Cl`
A. 86.8

Q. Record request: growth inhibition value, item `Nc1ccc(CCl)cc1Cc1c(O)ccc2ccccc12`
A. 66.7

Q. Looking for the measured growth inhibition of `CCCCCC(=O)c1ccc(O)cc1O` , can you help?
A. 91.2

Q. # query: growth inhibition of entry O=S1(=O)c2ccccc2N=C(c2ccccc2Cl)CC1c1ccc(F)cc1 (stereo unspecified)
A. 72.5
